The reported measurements were obtained from paper PMC10447463.

I'd appreciate it if you could supply Zeta category ( +1 = if > 4 mV;-1 = if < -4 mV; 0 = -4mV to 4 mV) values for the items below.
Assay: Zeta-potential measurement
Format: physicochemical
Settings: category from zeta potential

input: What Zeta category ( +1 = if > 4 mV;-1 = if < -4 mV; 0 = -4mV to 4 mV) value was documented for this substance, CKFKFQF [BL4] ?
output: 1 (+1 = if > 4 mV)

input: What Zeta category ( +1 = if > 4 mV;-1 = if < -4 mV; 0 = -4mV to 4 mV) value was documented for this substance, CKIKQII [MG4a] ?
output: 0 (0 = -4mV to 4 mV)

input: What Zeta category ( +1 = if > 4 mV;-1 = if < -4 mV; 0 = -4mV to 4 mV) value was documented for this substance, KIKIKIQI [TG13] ?
output: 1 (+1 = if > 4 mV)

input: What Zeta category ( +1 = if > 4 mV;-1 = if < -4 mV; 0 = -4mV to 4 mV) value was documented for this substance, QCKIKIQI [CK3] ?
output: 1 (+1 = if > 4 mV)

input: What Zeta category ( +1 = if > 4 mV;-1 = if < -4 mV; 0 = -4mV to 4 mV) value was documented for this substance, CKIKIQI [MG3b] ?
output: 1 (+1 = if > 4 mV)

input: What Zeta category ( +1 = if > 4 mV;-1 = if < -4 mV; 0 = -4mV to 4 mV) value was documented for this substance, KFKFQFNM [BL6a] ?
output: 1 (+1 = if > 4 mV)

input: What Zeta category ( +1 = if > 4 mV;-1 = if < -4 mV; 0 = -4mV to 4 mV) value was documented for this substance, CKFKFQFNM [BL3] ?
output: 1 (+1 = if > 4 mV)

input: What Zeta category ( +1 = if > 4 mV;-1 = if < -4 mV; 0 = -4mV to 4 mV) value was documented for this substance, QCKIKIQINMWQ [EF-C opt] ?
output: 1 (+1 = if > 4 mV)

input: What Zeta category ( +1 = if > 4 mV;-1 = if < -4 mV; 0 = -4mV to 4 mV) value was documented for this substance, CKIKIQINM [MG2] ?
output: 1 (+1 = if > 4 mV)

input: What Zeta category ( +1 = if > 4 mV;-1 = if < -4 mV; 0 = -4mV to 4 mV) value was documented for this substance, QCKIKQIINMWQ [reference compound] ?
output: 1 (+1 = if > 4 mV)

input: What Zeta category ( +1 = if > 4 mV;-1 = if < -4 mV; 0 = -4mV to 4 mV) value was documented for this substance, CKAKAQANMWQ [BL8] ?
output: 0 (0 = -4mV to 4 mV)

input: What Zeta category ( +1 = if > 4 mV;-1 = if < -4 mV; 0 = -4mV to 4 mV) value was documented for this substance, QCKAKAQANMWQ [CK22] ?
output: -1 (-1 = if < -4 mV)

input: What Zeta category ( +1 = if > 4 mV;-1 = if < -4 mV; 0 = -4mV to 4 mV) value was documented for this substance, CKIKQIINMWQ [MG5a / CK17] ?
output: 1 (+1 = if > 4 mV)

input: What Zeta category ( +1 = if > 4 mV;-1 = if < -4 mV; 0 = -4mV to 4 mV) value was documented for this substance, QCKFKQFFNMWQ [CK10] ?
output: 1 (+1 = if > 4 mV)

input: What Zeta category ( +1 = if > 4 mV;-1 = if < -4 mV; 0 = -4mV to 4 mV) value was documented for this substance, RGDKIKIQI [MG14] ?
output: 0 (0 = -4mV to 4 mV)

input: What Zeta category ( +1 = if > 4 mV;-1 = if < -4 mV; 0 = -4mV to 4 mV) value was documented for this substance, QCKIKQII [CK6] ?
output: 1 (+1 = if > 4 mV)

input: What Zeta category ( +1 = if > 4 mV;-1 = if < -4 mV; 0 = -4mV to 4 mV) value was documented for this substance, KIKQIINMWQ [JG2] ?
output: 1 (+1 = if > 4 mV)

input: What Zeta category ( +1 = if > 4 mV;-1 = if < -4 mV; 0 = -4mV to 4 mV) value was documented for this substance, CKIKIQINMW [TM86] ?
output: 1 (+1 = if > 4 mV)

input: What Zeta category ( +1 = if > 4 mV;-1 = if < -4 mV; 0 = -4mV to 4 mV) value was documented for this substance, KIKIQI [JJA4] ?
output: -1 (-1 = if < -4 mV)
